Molecular target: T1, human insulin receptor (human, UniProt P06213 28-1382)
T1 construct: whole, on cells; Stood in the assay as plasma membrane fragments on wheat germ agglutinin SPA beads, not as whole cells
Experiment: scintillation proximity competition binding against 125I-insulin, membranes with human insulin receptor
pIC50: −log10 of the molar value.
Property: pIC50

INSERT INTO assay_data (binder, observed_value) VALUES
  ('IGF1 (Y^B16L^B17) analog (ligand, Two chain analog; also called IGF analog) chain 1: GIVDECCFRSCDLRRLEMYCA chain 2: GPETLCGAELVDALYLVCGDRGFYFNKPT', 9.29);
